activity coefficient for assorted compounds
Experiment: activity coefficient (dimensionless); of the first substance listed, at infinite dilution; xn = mol fraction of the nth substance listed
Details: 314.1 K; 101 kPa; Liquid; Chromatography; x1 = 0
test_readout: activity coefficient

> print(dat)
                                   compound  result.value
1         CCCCCC [hexane] + CCCCCCCCCC(=O)O          1.75
2   CCCCCCC [heptane] + CCCCCCCCCCCCCC(=O)O          1.45
3   CC(C)=O [acetone] + CCCCCCCCCCCCCC(=O)O          1.43
4  C1CCCCC1 [cyclohexane] + CCCCCCCCCCCCCC(=O)O          1.09
5  Clc1ccccc1 [chlorobenzene] + CCCCCCCCCCCC(=O)O          1.11
6      CCCO [propan-1-ol] + CCCCCCCCCC(=O)O          1.89
